FYI, the data here is from patent US20170050957A1.

# Tested on: Key Grass and Sedge Weeds as well as Grass Crops
# Method notes: Post-emergent Test II herbicidal activity (Table 16)
# Assay type: in vivo
# Measurement parameters: Cyperus esculentus, post-emergence, 336 h, yellow nutsedge (Cyperus esculentus), 140 g ai/ha, 14 d, read-out: Visual Growth Reduction (%) 14 Days After Application, CYPES
Quantity name: pest or weed control at 140 g/ha

# lookup: pest or weed control at 140 g/ha of COC(=O)c1nc(-c2ccc3cc[nH]c3c2F)cc(N)c1Cl [Compound 1.23]
0 to 29%

# lookup: pest or weed control at 140 g/ha of COC(=O)c1nc(-c2cc3ccoc3cc2F)cc(N)c1Cl [Compound 2.04]
30 to 44%

# lookup: pest or weed control at 140 g/ha of COC(=O)c1nc(-c2ccc3ccn(C)c3c2)c(F)c(N)c1Cl [Compound 1.10]
0 to 29%

# lookup: pest or weed control at 140 g/ha of COC(=O)c1nc(-c2ccc3ccoc3c2F)nc(N)c1OC [Compound 2.13]
85 to 94%

# lookup: pest or weed control at 140 g/ha of COC(=O)c1nc(-c2cccc3[nH]ccc23)c(F)c(N)c1Cl [Compound 1.40]
0 to 29%

# lookup: pest or weed control at 140 g/ha of COC(=O)c1nc(-c2ccc(Cl)c3occc23)c(F)c(N)c1Cl [Compound 2.16]
0 to 29%

# lookup: pest or weed control at 140 g/ha of COC(=O)c1nc(-c2ccc3cc[nH]c3c2F)c(Cl)c(N)c1Cl [Compound 1.07]
0 to 29%

# lookup: pest or weed control at 140 g/ha of COC(=O)c1nc(-c2ccc(Cl)c3occc23)nc(N)c1Cl [Compound 2.20]
0 to 29%

# lookup: pest or weed control at 140 g/ha of Nc1c(F)c(-c2cccc3occc23)nc(C(=O)O)c1Cl [Compound 2.17]
95 to 100%

====

# System: Key Broadleaf Weed and Crop Species
# Method notes: Post-emergent Test II herbicidal activity (Table 15)
# Assay type: in vivo
# Measurement parameters: Chenopodium album, post-emergence, 336 h, lambsquarters (Chenopodium album), 140 g ai/ha, 14 d, read-out: Visual Growth Reduction (%) 14 Days After Application, CHEAL
Give measured pest or weed control at 140 g/ha for each item. Keep answers brief.

# lookup: pest or weed control at 140 g/ha of Nc1nc(-c2ccc(Cl)c3occc23)nc(C(=O)O)c1Cl
95 to 100%

# lookup: pest or weed control at 140 g/ha of Nc1c(F)c(-c2ccc3cc[nH]c3c2F)nc(C(=O)O)c1Cl
95 to 100%

# lookup: pest or weed control at 140 g/ha of COC(=O)c1nc(-c2ccc3sccc3c2)c(Cl)c(N)c1Cl
95 to 100%

# lookup: pest or weed control at 140 g/ha of COC(=O)c1nc(-c2ccc3sccc3c2)nc(N)c1OC
85 to 94%

# lookup: pest or weed control at 140 g/ha of COC(=O)c1nc(-c2ccc(Cl)c3cc[nH]c23)cc(N)c1Cl
95 to 100%

====

# Test system: Key Broadleaf Weed and Crop Species
# Method notes: Post-emergent Test II herbicidal activity (Table 15)
# Format: in vivo
# Measurement parameters: Brassica napus, post-emergence, 336 h, oilseed rape, canola (Brassica napus), 140 g ai/ha, 14 d, read-out: Visual Growth Reduction (%) 14 Days After Application, BRSNN
Give measured pest or weed control at 140 g/ha for each item. Keep answers brief.

# lookup: pest or weed control at 140 g/ha of COc1c(N)nc(-c2ccc3cc[nH]c3c2)nc1C(=O)O [Compound 1.33]
95 to 100%

# lookup: pest or weed control at 140 g/ha of COC(=O)c1nc(-c2ccc3ccoc3c2F)cc(N)c1Cl [Compound 2.11]
95 to 100%

# lookup: pest or weed control at 140 g/ha of COC(=O)c1nc(-c2cc3occc3cc2F)cc(N)c1Cl [Compound 2.12]
95 to 100%

# lookup: pest or weed control at 140 g/ha of COC(=O)c1nc(-c2ccc3cc[nH]c3c2)c(C)c(N)c1Cl [Compound 1.28]
85 to 94%

# lookup: pest or weed control at 140 g/ha of COC(=O)c1nc(-c2ccc3cc[nH]c3c2F)cc(N)c1Cl [Compound 1.23]
85 to 94%

# lookup: pest or weed control at 140 g/ha of COC(=O)c1nc(-c2cc3[nH]ccc3cc2F)cc(N)c1Cl [Compound 1.25]
85 to 94%

# lookup: pest or weed control at 140 g/ha of Nc1cc(-c2cc3[nH]ccc3cc2F)nc(C(=O)O)c1Cl [Compound 1.26]
95 to 100%

# lookup: pest or weed control at 140 g/ha of COC(=O)c1nc(-c2cc3sccc3cc2F)nc(N)c1OC [Compound 3.22]
60 to 74%

# lookup: pest or weed control at 140 g/ha of Nc1c(F)c(-c2ccc3cn[nH]c3c2)nc(C(=O)O)c1Cl [Compound 4.06]
85 to 94%

====

# System: Key Grass and Sedge Weeds as well as Grass Crops
# Method notes: Post-emergent Test II herbicidal activity (Table 16)
# Assay type: in vivo
# Measurement parameters: Echinochloa crus-galli, post-emergence, 336 h, barnyardgrass (Echinochloa crus-galli), 35 g ai/ha, 14 days after application, read-out: Visual Growth Reduction (%) 14 Days After Application ECHCG
Quantity name: pest or weed control at 35 g/ha

# lookup: pest or weed control at 35 g/ha of COC(=O)c1nc(-c2ccc3c(cnn3C)c2)c(F)c(N)c1Cl
60 to 74%

# lookup: pest or weed control at 35 g/ha of COC(=O)c1nc(-c2ccc3[nH]ncc3c2)c(F)c(N)c1Cl
0 to 29%

# lookup: pest or weed control at 35 g/ha of Nc1c(F)c(-c2ccc3ccsc3c2)nc(C(=O)O)c1Cl
60 to 74%

# lookup: pest or weed control at 35 g/ha of COC(=O)c1nc(-c2cccc3cn[nH]c23)c(F)c(N)c1Cl
0 to 29%

====

# Tested on: Key Grass and Sedge Weeds as well as Grass Crops
# Method notes: Post-emergent Test II herbicidal activity (Table 16)
# Format: in vivo
# Measurement parameters: Echinochloa crus-galli, post-emergence, 336 h, barnyardgrass (Echinochloa crus-galli), 35 g ai/ha, 14 days after application, read-out: Visual Growth Reduction (%) 14 Days After Application ECHCG
# Source text: Post-emergent Test II: Seeds or nutlets of the desired test plant species were planted in Sun Gro Metro-Mix® 360 planting mixture, which typically has a pH of 6.0 to 6.8 and an organic matter content of about 30 percent, in plastic pots with a surface area of 64 square centimeters. When required to ensure good germination and healthy plants, a fungicide treatment and/or other chemical or physical treatment was applied. […]
Quantity name: pest or weed control at 35 g/ha

# lookup: pest or weed control at 35 g/ha of COC(=O)c1nc(-c2cc3sccc3cc2F)nc(N)c1OC
0 to 29%

# lookup: pest or weed control at 35 g/ha of COC(=O)c1nc(-c2ccc3ccsc3c2)c(C)c(N)c1Cl
0 to 29%

# lookup: pest or weed control at 35 g/ha of COC(=O)c1nc(-c2ccc3ccsc3c2)nc(N)c1OC
0 to 29%

# lookup: pest or weed control at 35 g/ha of Nc1c(F)c(-c2ccc3scnc3c2)nc(C(=O)O)c1Cl
75 to 84%

# lookup: pest or weed control at 35 g/ha of COC(=O)c1nc(-c2cc3sccc3cc2F)cc(N)c1Cl
45 to 59%

# lookup: pest or weed control at 35 g/ha of COC(=O)c1nc(-c2ccc3scnc3c2)c(F)c(N)c1Cl
0 to 29%

# lookup: pest or weed control at 35 g/ha of COC(=O)c1nc(-c2ccc3ncn(C)c3c2)c(F)c(N)c1Cl
0 to 29%

# lookup: pest or weed control at 35 g/ha of Nc1c(F)c(-c2ccc3cn[nH]c3c2)nc(C(=O)O)c1Cl
0 to 29%

# lookup: pest or weed control at 35 g/ha of COc1c(N)nc(-c2ccc3ccsc3c2)nc1C(=O)O
75 to 84%

# lookup: pest or weed control at 35 g/ha of COC(=O)c1nc(-c2ccc3cn[nH]c3c2)cc(N)c1Cl
0 to 29%

# lookup: pest or weed control at 35 g/ha of Nc1cc(-c2ccc3ccsc3c2)nc(C(=O)O)c1Cl
75 to 84%

# lookup: pest or weed control at 35 g/ha of COC(=O)c1nc(-c2cccc3c2cnn3C)c(F)c(N)c1Cl
0 to 29%

# lookup: pest or weed control at 35 g/ha of COC(=O)c1nc(-c2cc3sccc3cc2F)c(F)c(N)c1Cl
0 to 29%

# lookup: pest or weed control at 35 g/ha of COC(=O)c1nc(-c2ccc3ocnc3c2)c(F)c(N)c1Cl
75 to 84%

# lookup: pest or weed control at 35 g/ha of COC(=O)c1nc(-c2ccc3sccc3c2)nc(N)c1OC
0 to 29%

# lookup: pest or weed control at 35 g/ha of Cc1c(-c2ccc3ccsc3c2)nc(C(=O)O)c(Cl)c1N
0 to 29%

# lookup: pest or weed control at 35 g/ha of COC(=O)c1nc(-c2ccc3ccsc3c2)cc(N)c1Cl
75 to 84%

# lookup: pest or weed control at 35 g/ha of Nc1c(Cl)c(C(=O)O)nc(-c2ccc3ccsc3c2)c1Cl
0 to 29%

# lookup: pest or weed control at 35 g/ha of COC(=O)c1nc(-c2cccc3ccsc23)c(F)c(N)c1Cl
0 to 29%
